Values were extracted from patent US7078382.

target: KDR receptor with a gD tag at the N-terminus, on CHO cells (UniProt P35968 20-1356); test: cell-based or functional assay
Listing of entries alongside the reported Phosphorylation-Inducing Activity (KIRA), concentration at midpoint.
READOUT: Phosphorylation-Inducing Activity (KIRA), concentration at midpoint

| BINDER | RESULT |
| --- | --- |
| native VEGF (8-109) (ligand) GQNHHEVVKFMDVYQRSYCHPIETLVDIFQEYPDEIEYIFKPSCVPLMRCGGCCNDEGLECVPTEESNITMQIMRIKPHQGQHIGEMSFLQHNKCECRPKKD | 2 nM |
| LK-VRB-4s (ligand) APMAEGGGQNHHEVVKIEDVFERSICHPIETLVDIFQEYPDEIEYIFKPSCVPLMRCGGCCNDEGLECVPTEESNITMQIMRIKPHQGQHIGEMSFLQHNKCECRPKKD | 1 nM |
| LK-VRB-2s* (ligand) APMAEGGGQNHHEVVKFMDVYQRSYCHPIETLVDIFQEYPDEIEYIFKPSCVPLMRCGGCCNSEMRECVPTEESNITMQIMRIKPHQGQHIGEMSFLQHNKCECRPKKD | 2 nM |
